molecular target: KAT2A (Homo sapiens (Human)); experiment: KAT2A acetyltransferase biochemical assay (RapidFire mass spectrometry, AcCoA to CoA); settings: read-out: KAT2A Ki at 1 μM AcCoA, 5 μM H3 1-21 peptide, 0.5 nM KAT2A, 90-minute reaction
readout_label: Ki

| compound | Ki |
| --- | --- |
| CC(C)c1ccccc1-c1cc(CC(=O)NS(=O)(=O)C2(C)CC2)ccc1O[C@@H]1CC[C@@H](NC(=O)[C@@]2(F)CNC3(CCCC3)C2)C1 (single isomer, unassigned) [Example C62] | > 99.9 nM |
| CC(C)c1ccccc1-c1cc(CC(=O)NS(=O)(=O)C(C)C)ccc1O[C@@H]1CC[C@@H](NC(=O)[C@@]2(F)CNCC(C)(C)C2)C1 (single isomer, unassigned) [Example C74] | > 99.9 nM |

Incoming: Record request: Ki value, item O=C(O)c1ccc(O[C@@H]2CC[C@@H](NC(=O)[C@@]3(F)CNC4(CCCC4)C3)C2)c(-c2cccc(F)c2C2CCC2)c1 (single isomer, unassigned) [Example A35]
Outgoing: > 99.9 nM

###

Can you tell me Ki for the items I'm about to list?
target: KAT2A (Homo sapiens (Human), UniProt Q92830); test: KAT2A acetyltransferase biochemical assay (RapidFire mass spectrometry, AcCoA to CoA); details: read-out: KAT2A Ki at 1 μM AcCoA, 5 μM H3 1-21 peptide, 0.5 nM KAT2A, 90-minute reaction
Sequence (Q92830 whole entry): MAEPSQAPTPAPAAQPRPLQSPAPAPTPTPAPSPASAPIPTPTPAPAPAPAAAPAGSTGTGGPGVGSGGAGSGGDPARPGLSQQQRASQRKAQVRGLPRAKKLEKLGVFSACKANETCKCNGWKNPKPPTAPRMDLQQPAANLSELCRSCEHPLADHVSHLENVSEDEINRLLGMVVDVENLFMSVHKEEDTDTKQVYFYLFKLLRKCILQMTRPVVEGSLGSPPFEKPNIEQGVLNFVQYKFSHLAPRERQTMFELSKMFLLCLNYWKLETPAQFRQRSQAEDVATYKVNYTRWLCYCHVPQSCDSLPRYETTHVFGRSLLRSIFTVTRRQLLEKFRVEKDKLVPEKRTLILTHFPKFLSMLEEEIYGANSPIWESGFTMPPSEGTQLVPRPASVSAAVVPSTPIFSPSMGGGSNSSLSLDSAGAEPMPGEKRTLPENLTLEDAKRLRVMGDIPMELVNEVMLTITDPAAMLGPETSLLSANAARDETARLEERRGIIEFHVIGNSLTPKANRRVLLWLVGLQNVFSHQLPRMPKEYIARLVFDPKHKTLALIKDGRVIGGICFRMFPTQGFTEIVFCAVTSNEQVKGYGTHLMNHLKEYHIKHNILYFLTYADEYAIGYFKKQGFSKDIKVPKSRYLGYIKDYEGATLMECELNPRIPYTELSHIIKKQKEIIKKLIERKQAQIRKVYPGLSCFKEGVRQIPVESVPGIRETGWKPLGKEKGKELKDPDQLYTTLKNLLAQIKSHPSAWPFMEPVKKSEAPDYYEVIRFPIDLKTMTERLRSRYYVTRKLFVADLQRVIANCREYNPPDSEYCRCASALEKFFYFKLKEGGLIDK
Answers are plain numbers, in nM.

| compound | Ki, nM |
| --- | --- |
| CCc1c(F)cccc1-c1cc(C(C)(C)C(=O)NS(=O)(=O)CC)ccc1O[C@@H]1CC[C@@H](NC(=O)[C@@]2(F)CNC3(CCCC3)C2)C1 (single isomer, unassigned) [Example C25] | 0.14 |
| CC1(C)CNC[C@](F)(C(=O)N[C@@H]2CC[C@@H](Oc3ccc(C(C)(C)C(=O)NS(=O)(=O)C4(C)CC4)cc3-c3cccc(F)c3C3CCC3)C2)C1 (single isomer, unassigned) [Example C35] | 0.14 |
| CCc1c(F)cccc1-c1cc(CC(=O)NS(=O)(=O)C(C)C)ccc1O[C@@H]1CC[C@@H](NC(=O)[C@@]2(F)CNC3(CCCC3)C2)C1 (single isomer, unassigned) [Example C73] | 0.05 |

API: the following record is the query input.
Incoming: Record request: Ki value, item CCS(=O)(=O)NC(=O)[C@H](C)c1ccc(O[C@@H]2CC[C@@H](NC(=O)[C@@]3(F)CNC4(CCC4)C3)C2)c(-c2ccccc2C(C)C)c1 (single isomer, unassigned) [Example C88]
Outgoing: 0.21

###

target: KAT2A (Homo sapiens (Human)); assay: KAT2A acetyltransferase biochemical assay (RapidFire mass spectrometry, AcCoA to CoA); conditions: read-out: KAT2A Ki at 1 μM AcCoA, 5 μM H3 1-21 peptide, 0.5 nM KAT2A, 90-minute reaction
readout_label: pKi
Give bare numbers, as −log10 of the molar value.

# annotated cases, reported pKi shown
| compound | recorded_measurement |
| --- | --- |
| O=C(O)Cc1ccc(O[C@@H]2CC[C@@H](NC(=O)[C@@]3(F)CNC4(CCCC4)C3)C2)c(-c2cccc(F)c2C2CCC2)c1 (single isomer, unassigned) [Example A25] | 9.17 |
| CCc1c(F)cccc1-c1cc(CC(=O)NS(=O)(=O)C(C)C)ccc1O[C@@H]1CC[C@@H](NC(=O)[C@@]2(F)CNCC(C)(C)C2)C1 (single isomer, unassigned) [Example C66] | 7.93 |
| CN1CC2(CCCC2)C[C@@H]1C(=O)N[C@@H]1CC[C@@H](Oc2cccc(C(=O)NS(C)(=O)=O)c2-c2cccc(F)c2C2CCC2)C1 (atropisomer, axis not shown) [Example I11] | 6.79 |
| CN1CC(C)(C)C[C@H]1C(=O)N[C@@H]1CC[C@@H](Oc2ccc(C(C)(C)C(=O)NS(C)(=O)=O)cc2-c2cccc(F)c2C2CCC2)C1 [Example E1] | 9.82 |
| CC(C)(C(=O)NS(=O)(=O)N1CC(F)C1)c1ccc(O[C@@H]2CC[C@@H](NC(=O)[C@@]3(F)CNC4(CCC4)C3)C2)c(-c2cccc(F)c2C2CCC2)c1 (single isomer, unassigned) | 10.05 |

Could I get pKi for every one of these entries?
1. CC(C)c1ccccc1-c1c(CC(=O)O)cccc1O[C@@H]1CC[C@@H](NC(=O)[C@@H]2CC(C)(C)CN2C)C1 (atropisomer, axis not shown) [Example H5]
2. CC(C)S(=O)(=O)NC(=O)C(C)(C)c1ccc(O[C@@H]2CC[C@@H](NC(=O)[C@]3(F)CNC4(CCC4)C3)C2)c(-c2cccc(F)c2C2CCC2)c1 (single isomer, unassigned)
3. CC(C)c1ccccc1-c1cc(C(=O)O)ccc1O[C@@H]1CC[C@@H](NC(=O)[C@@]2(F)CNC3(CCC3)C2)C1
4. CC1(C)C[C@](F)(C(=O)N[C@@H]2CC[C@@H](Oc3ccc(C(C)(C)C(=O)NS(=O)(=O)N4CCC4)cc3-c3cccc(F)c3C3CCC3)C2)CN1 (single isomer, unassigned)
5. CN1CC(C)(C)C[C@H]1C(=O)N[C@@H]1CC[C@@H](Oc2ccc(C(=O)O)cc2-c2ccccc2C2CCC2)C1

Outgoing:
5.04
9.85
9.46
7.87
7.60

###

target: KAT2A (Homo sapiens (Human), UniProt Q92830); test: KAT2A acetyltransferase biochemical assay (RapidFire mass spectrometry, AcCoA to CoA); conditions: read-out: KAT2A Ki at 1 μM AcCoA, 5 μM H3 1-21 peptide, 0.5 nM KAT2A, 90-minute reaction
Can you tell me Ki for the items I'm about to list?
Numbers only, in nM.

| compound | recorded_measurement |
| --- | --- |
| CC(C)(C(=O)NS(C)(=O)=O)c1ccc(O[C@@H]2CC[C@@H](NC(=O)[C@]3(F)CNC4(CCC4)C3)C2)c(-c2cccc(F)c2C2CC2)c1 (single isomer, unassigned) | 1.41 |
| CCc1c(F)cccc1-c1cc(CC(=O)NS(=O)(=O)C2(C)CC2)ccc1O[C@@H]1CC[C@@H](NC(=O)[C@@]2(F)CNC3(CCCC3)C2)C1 (single isomer, unassigned) | 0.19 |
| C[C@H](C(=O)O)c1ccc(O[C@@H]2CC[C@@H](NC(=O)[C@@]3(F)CNC4(CCC4)C3)C2)c(-c2cccc(F)c2C2CCC2)c1 (single isomer, unassigned) [Example A19] | 2.4 |
| CC(C)c1c(F)cccc1-c1cc(CC(=O)O)ccc1O[C@@H]1CC[C@@H](NC(=O)[C@@H]2CC(C)(C)CN2C)C1 | 12.4 |

Could I get Ki for every one of these entries?
1. CC1(C)CNC[C@](F)(C(=O)N[C@@H]2CC[C@@H](Oc3ccc(C(C)(C)C(=O)NS(C)(=O)=O)cc3-c3cccc(F)c3C3CCC3)C2)C1 (single isomer, unassigned) [Example C36]
2. C[C@H](C(=O)NS(C)(=O)=O)c1ccc(OC[C@H]2C[C@H](NC(=O)[C@@H]3CC(C)(C)CN3C)C2)c(-c2cccc(F)c2C2CCC2)c1 (single isomer, unassigned)

Outgoing:
1: 118; 2: 2.15

###

molecular target: KAT2A (Homo sapiens (Human), UniProt Q92830); assay: KAT2A acetyltransferase biochemical assay (RapidFire mass spectrometry, AcCoA to CoA); details: read-out: KAT2A Ki at 1 μM AcCoA, 5 μM H3 1-21 peptide, 0.5 nM KAT2A, 90-minute reaction
readout_label: pKi
Numbers only, as −log10 of the molar value.

# annotated cases, reported pKi shown
| compound | pKi |
| --- | --- |
| CC(C)(C(=O)NS(C)(=O)=O)c1ccc(O[C@@H]2CC[C@@H](NC(=O)[C@@]3(F)CNC4(CCC4)C3)C2)c(-c2cccc(F)c2C2CCC2)c1 [Example C1] | 9.37 |
| CN1CC(C)(C)C[C@H]1C(=O)N[C@@H]1CC[C@@H](Oc2ccc(CC(=O)O)cc2-c2cccc(F)c2C2CCC2)C1 [Example D10] | 8.02 |
| CC(C)c1ccccc1-c1cc(CC(=O)NS(=O)(=O)C2(C)CC2)ccc1O[C@@H]1CC[C@@H](NC(=O)[C@@]2(F)CNCC(C)(C)C2)C1 (single isomer, unassigned) [Example C80] | 9.96 |
| CN1CC(C)(C)C[C@H]1C(=O)N[C@H]1C[C@H](Oc2ccc(CC(=O)O)cc2-c2cccc(F)c2C2CCC2)C[C@H]1O [Example K4] | 9.15 |
| O=C(O)c1ccc(O[C@@H]2CC[C@@H](NC(=O)[C@@]3(F)CNCC4(CCC4)C3)C2)c(-c2cccc(F)c2C2CCC2)c1 (single isomer, unassigned) [Example A34] | 9.68 |
| CC(C)S(=O)(=O)NC(=O)Cc1ccc(O[C@@H]2CC[C@@H](NC(=O)[C@@]3(F)CNCC(C)(C)C3)C2)c(-c2cccc(F)c2C2CCC2)c1 (single isomer, unassigned) [Example C77] | 10.30 |
| CC(C)(C(=O)NS(=O)(=O)N1CC(F)(F)C1)c1ccc(O[C@@H]2CC[C@@H](NC(=O)[C@]3(F)CNC4(CCC4)C3)C2)c(-c2cccc(F)c2C2CCC2)c1 (single isomer, unassigned) [Example B9] | 6.68 |
| CCc1ccccc1-c1cc(CC(=O)NS(=O)(=O)C(C)C)ccc1O[C@@H]1CC[C@@H](NC(=O)[C@@]2(F)CNC3(CCC3)C2)C1 [Example C52] | 9.32 |
| CC(C)c1ccccc1-c1cc(C(C)(C)C(=O)NS(=O)(=O)C(C)C)ccc1O[C@@H]1CC[C@@H](NC(=O)[C@@]2(F)CNC3(CCC3)C2)C1 [Example C47] | 9.48 |
| C[C@@H](C(=O)O)c1ccc(O[C@@H]2CC[C@@H](NC(=O)[C@@H]3CC(C)(C)CN3C)C2)c(-c2cccc(F)c2C2CCC2)c1 (single isomer, unassigned) [Example D13] | 7.97 |

Could I get pKi for every one of these entries?
1. CN1CC2(CCCC2)C[C@@H]1C(=O)N[C@@H]1CC[C@@H](Oc2cccc(C(=O)NS(C)(=O)=O)c2-c2cccc(F)c2C2CCC2)C1 (atropisomer, axis not shown) [Example I8]
2. CCS(=O)(=O)NC(=O)C(C)(C)c1ccc(O[C@@H]2CC[C@@H](NC(=O)[C@@]3(F)CNC(C)(C)C3)C2)c(-c2cccc(F)c2C2CCC2)c1 (single isomer, unassigned) [Example B14]
3. CC1(C)C[C@@](F)(C(=O)N[C@@H]2CC[C@@H](Oc3ccc(C(=O)O)cc3-c3cccc(F)c3C3CCC3)C2)CN1 (single isomer, unassigned) [Example A14]
4. CCc1c(F)cccc1-c1cc(CC(=O)NS(=O)(=O)C(C)C)ccc1O[C@@H]1CC[C@@H](NC(=O)[C@@]2(F)CNC3(CCC3)C2)C1 [Example C58]

Outgoing:
5.86
8.74
8.88
9.96
